- Measurement Protocol: Toxicity liver stage against HepG2, at 10uM
- Type: cell-based
- Parameters: test concentration 10 uM, cell line HepG2-A16-CD81EGFP
- Condition Details: human, HepG2-A16-CD81EGFP cells; read-out: INHIBITION
Endpoint Label: cytotoxicity at 10 µM (%)
Form entry: value (%) — number only.

{"Compound": "CN(Cc1ccc2nonc2c1)C(=O)CCc1cc2n(n1)CCCNC2", "cytotoxicity at 10 µM / %": -9.46}
{"Compound": "COC(=O)C(C)(C)NC(=O)c1cnc(Cc2ccc(F)cc2)s1", "cytotoxicity at 10 µM / %": -0.538}
{"Compound": "CC(O)CN(C)C(=O)Nc1ccn(-c2cccc(C(F)(F)F)c2)n1 (stereo unspecified)", "cytotoxicity at 10 µM / %": 4.85}

For reference, reported cytotoxicity at 10 µM for CCC[C@H]1CN(S(=O)(=O)c2ccc(Cl)cc2)C[C@@H]1NC(C)=O stands at -12.4

For reference, reported cytotoxicity at 10 µM for Cc1nc(CNC(=O)Cn2nc(-c3ccc(F)cc3)oc2=O)cs1 stands at 1.12

For reference, reported cytotoxicity at 10 µM for Cc1cnn(CC2CCCN2CC(=O)NC2CCN(C3CC3)CC2)c1 (stereo unspecified) stands at 0.109
